- Test system: Escherichia coli TOP10
- Protocol summary: shrunken log2 fold change of peptide-encoding DNA abundance (4.5 h post-induction vs induction); higher = less antimicrobial activity (less host growth inhibition)
- Test context: time post-induction: 4.5 h; library: site-saturation at positions 5, 18, 19, 20
# shrunken log2 fold change per record follows

Some solved cases for reference:
Residue codes | shrunken log2 fold change
RRIRKRPPRLPRPRPRPTWHPRP | 0.371
RRIRLRPPRLPRPRPRPFQYPRP | -0.182
RRIRYRPPRLPRPRPRPFIFPRP | -1.01

Query block: Need shrunken log2 fold change of `RRIRFRPPRLPRPRPRPELRPRP` , thanks.
Result block: -0.0629

Query block: Can you check `RRIRFRPPRLPRPRPRPTMMPRP` next?
Result block: -0.0556

Query block: Can you check `RRIRNRPPRLPRPRPRPFAGPRP` next?
Result block: 0.0411

Query block: Can you check `RRIRYRPPRLPRPRPRPFTDPRP` next?
Result block: -0.583

Query block: Can you check `RRIRHRPPRLPRPRPRPSADPRP` next?
Result block: -0.428

###

- Test system: Escherichia coli TOP10
- Protocol summary: shrunken log2 fold change of peptide-encoding DNA abundance (4.5 h post-induction vs induction); higher = less antimicrobial activity (less host growth inhibition)
- Test context: time post-induction: 4.5 h; library: site-saturation at positions 5, 18, 19, 20
Quantity: shrunken log2 fold change
Respond numerically, and do not add a unit to the figure.

Query block: Need shrunken log2 fold change of `RRIRPRPPRLPRPRPRPEDRPRP` , thanks.
Result block: 0.0448

Query block: Can you check `RRIRIRPPRLPRPRPRPQSAPRP` next?
Result block: 0.0313

Query block: Can you check `RRIRQRPPRLPRPRPRPEMAPRP` next?
Result block: -0.0608

Query block: Can you check `RRIRDRPPRLPRPRPRPSNPPRP` next?
Result block: -0.281

Query block: Can you check `RRIRLRPPRLPRPRPRPQRTPRP` next?
Result block: 0.43

Query block: Can you check `RRIRVRPPRLPRPRPRPKMWPRP` next?
Result block: 0.0893

Query block: Can you check `RRIRLRPPRLPRPRPRPPEHPRP` next?
Result block: 0.188

Query block: Can you check `RRIRRRPPRLPRPRPRPCGWPRP` next?
Result block: 0.776

Query block: Can you check `RRIRRRPPRLPRPRPRPGGGPRP` next?
Result block: 0.841

Query block: Can you check `RRIRNRPPRLPRPRPRPNEHPRP` next?
Result block: -0.071

Query block: Can you check `RRIRMRPPRLPRPRPRPHYNPRP` next?
Result block: -0.467

###

- System: Escherichia coli TOP10
- Protocol summary: shrunken log2 fold change of peptide-encoding DNA abundance (4.5 h post-induction vs induction); higher = less antimicrobial activity (less host growth inhibition)
- Test context: time post-induction: 4.5 h; library: site-saturation at positions 5, 18, 19, 20
Label yes (1) when shrunken log2 fold change is at or above -0.2; otherwise label no (0).

Query block: Quick check, shrunken log2 fold change >= -0.2? `RRIRQRPPRLPRPRPRPARDPRP`
Result block: yes (1)

Query block: Can you check `RRIRYRPPRLPRPRPRPFSRPRP` next?
Result block: no (0)

Query block: Can you check `RRIRMRPPRLPRPRPRPNVDPRP` next?
Result block: yes (1)

Query block: Can you check `RRIRGRPPRLPRPRPRPCKRPRP` next?
Result block: yes (1)

###

- Test system: Escherichia coli TOP10
- Protocol summary: shrunken log2 fold change of peptide-encoding DNA abundance (4.5 h post-induction vs induction); higher = less antimicrobial activity (less host growth inhibition)
- Test context: time post-induction: 4.5 h; library: site-saturation at positions 5, 18, 19, 20
Quantity: shrunken log2 fold change

Some solved cases for reference:
Residue codes | shrunken log2 fold change
RRIRMRPPRLPRPRPRPLSLPRP | 0.0457
RRIRKRPPRLPRPRPRPALHPRP | 0.374

Consider the additional sequence presented here.
Query block: Need shrunken log2 fold change of `RRIRVRPPRLPRPRPRPFGQPRP` , thanks.
Result block: -0.222

###

# shrunken log2 fold change per record follows
- Tested on: Escherichia coli TOP10
- Protocol summary: shrunken log2 fold change of peptide-encoding DNA abundance (4.5 h post-induction vs induction); higher = less antimicrobial activity (less host growth inhibition)
- Test context: time post-induction: 4.5 h; library: site-saturation at positions 5, 18, 19, 20

Some solved cases for reference:
Residue codes | shrunken log2 fold change
RRIRSRPPRLPRPRPRPNKSPRP | -0.266
RRIRYRPPRLPRPRPRPFRFPRP | -0.83
RRIRYRPPRLPRPRPRPWEAPRP | -0.271

Query block: Need shrunken log2 fold change of `RRIRSRPPRLPRPRPRPWIYPRP` , thanks.
Result block: -0.187

Query block: Can you check `RRIRGRPPRLPRPRPRPAQAPRP` next?
Result block: 0.505

Query block: Can you check `RRIRVRPPRLPRPRPRPRKHPRP` next?
Result block: 0.112

Query block: Can you check `RRIRFRPPRLPRPRPRPHFIPRP` next?
Result block: -0.473

###

# shrunken log2 fold change per record follows
- System: Escherichia coli TOP10
- Protocol summary: shrunken log2 fold change of peptide-encoding DNA abundance (4.5 h post-induction vs induction); higher = less antimicrobial activity (less host growth inhibition)
- Test context: time post-induction: 4.5 h; library: site-saturation at positions 5, 18, 19, 20
Respond numerically, and do not add a unit to the figure.

Some solved cases for reference:
Residue codes | Recorded number
RRIRARPPRLPRPRPRPLFTPRP | 0.0936
RRIRDRPPRLPRPRPRPERIPRP | -0.0322
RRIRSRPPRLPRPRPRPQPVPRP | 0.0573
RRIRLRPPRLPRPRPRPNSCPRP | 0.00169
RRIRWRPPRLPRPRPRPVKAPRP | 0.284
RRIRWRPPRLPRPRPRPDDQPRP | -0.0297
RRIRSRPPRLPRPRPRPEGMPRP | 0.392

Query block: Need shrunken log2 fold change of `RRIRKRPPRLPRPRPRPPHTPRP` , thanks.
Result block: 0.534

###

- System: Escherichia coli TOP10
- Protocol summary: shrunken log2 fold change of peptide-encoding DNA abundance (4.5 h post-induction vs induction); higher = less antimicrobial activity (less host growth inhibition)
- Test context: time post-induction: 4.5 h; library: site-saturation at positions 5, 18, 19, 20
Each record gets a class by shrunken log2 fold change: small value: < -0.01; mid value: ≥ -0.01 and < 0.2; large value: ≥ 0.2

Consider the worked cases shown below.
Residue codes | Target of assay | Group label
RRIRWRPPRLPRPRPRPPPEPRP | Escherichia coli TOP10 | large value
RRIRNRPPRLPRPRPRPDYDPRP | Escherichia coli TOP10 | small value
RRIRMRPPRLPRPRPRPWLGPRP | Escherichia coli TOP10 | large value
RRIRERPPRLPRPRPRPFSYPRP | Escherichia coli TOP10 | small value
RRIRARPPRLPRPRPRPQADPRP | Escherichia coli TOP10 | small value
RRIRTRPPRLPRPRPRPLFKPRP | Escherichia coli TOP10 | large value
RRIRKRPPRLPRPRPRPHNGPRP | Escherichia coli TOP10 | mid value
RRIRVRPPRLPRPRPRPLQPPRP | Escherichia coli TOP10 | mid value
RRIRPRPPRLPRPRPRPCMIPRP | Escherichia coli TOP10 | small value
RRIRERPPRLPRPRPRPFWYPRP | Escherichia coli TOP10 | mid value

We next turn to a different sequence, shown below.
Query block: Place this sequence in its band: `RRIRGRPPRLPRPRPRPTPIPRP`
Result block: large value

###

- Tested on: Escherichia coli TOP10
- Protocol summary: shrunken log2 fold change of peptide-encoding DNA abundance (4.5 h post-induction vs induction); higher = less antimicrobial activity (less host growth inhibition)
- Test context: time post-induction: 4.5 h; library: site-saturation at positions 5, 18, 19, 20
Label 1 (yes) when shrunken log2 fold change is at or above -0.06; otherwise label 0 (no).

Consider the worked cases shown below.
Residue codes | Group label
RRIRWRPPRLPRPRPRPTRPPRP | 1 (yes)
RRIRNRPPRLPRPRPRPKSCPRP | 1 (yes)
RRIRHRPPRLPRPRPRPPHNPRP | 1 (yes)
RRIRKRPPRLPRPRPRPTPDPRP | 1 (yes)
RRIRSRPPRLPRPRPRPQANPRP | 1 (yes)
RRIRLRPPRLPRPRPRPQMMPRP | 0 (no)

Query block: Quick check, shrunken log2 fold change >= -0.06? `RRIRHRPPRLPRPRPRPNWYPRP`
Result block: 0 (no)

###

- Test system: Escherichia coli TOP10;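 also: peptides expressed intracellularly from a pBAD plasmid library in pooled LB shake-flask culture, induced with 0.3% L-arabinose, DNA abundance read by NGS, three biological replicates, DESeq2 with apeglm shrinkage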
- Protocol summary: shrunken log2 fold change of peptide-encoding DNA abundance (4.5 h post-induction vs induction); higher = less antimicrobial activity (less host growth inhibition)
- Test context: time post-induction: 4.5 h; library: site-saturation at positions 5, 18, 19, 20
Label yes when shrunken log2 fold change is at or above 0.05; otherwise label no.

Residue codes | Group label
RRIRTRPPRLPRPRPRPGARPRP | yes
RRIRLRPPRLPRPRPRPYPGPRP | no
RRIRHRPPRLPRPRPRPMWDPRP | no

Query block: Quick check, shrunken log2 fold change >= 0.05? `RRIRGRPPRLPRPRPRPFTGPRP`
Result block: no

Query block: Can you check `RRIRCRPPRLPRPRPRPYCAPRP` next?
Result block: no
